Attribute: pEC50
# Test system: BT474 cells
# Protocol Description: alamarBlue BT474 cell assay (antiproliferative/cytotoxicity)
# Format: cell-based
# Particulars: BT-474 human breast cancer cell line, 5-6 days incubation
Value format note: pEC50 is -log10 of concentration (mol/L); just state the number.

INPUT: Give BT474 cells pEC50 for CCc1ncnc(-c2ccnc(C(C)(C)C)c2)c1C#Cc1cnc(C)c(NS(C)(=O)=O)c1
OUTPUT: 6.77

INPUT: Next: CCc1nc(N)nc(-c2ccc(C(=O)N3CCN(C)CC3)c(F)c2)c1C#Cc1cnc(C)c(NS(C)(=O)=O)c1
OUTPUT: 6.29

###

# System: H460 cells
# Protocol Description: alamarBlue H460 cell assay (antiproliferative/cytotoxicity)
# Format: cell-based
# Particulars: NCI-H460; H460 human lung carcinoma cells
Attribute: EC50

[[record]]
molecule = "CCc1ncnc(-c2ccc(F)cc2F)c1C#Cc1cnc(C)c(NS(C)(=O)=O)c1 [Example 63]"
measured_value = "1110 nM"

[[record]]
molecule = "CCc1ccc(S(=O)(=O)Nc2cc(C#Cc3c(CC)ncnc3-c3ccnc(C)c3)cnc2C)cc1 [Example 100]"
measured_value = "558 nM"

[[record]]
molecule = "Cc1ncc(C#Cc2c(C)ncnc2-c2cccc(CN(C)C)c2)cc1NS(C)(=O)=O [Example 41]"
measured_value = "2750 nM"


INPUT: Fill blank: measured EC50 of the molecule CCc1cc(-c2ncnc(CC)c2C#Cc2cnc(C)c(NS(C)(=O)=O)c2)ccn1 [Example 5] is ____.
OUTPUT: 159 nM

###

# System: PI3Kalpha (Homo sapiens)
# Construct: His (N)
# Sequence (P27986 whole entry): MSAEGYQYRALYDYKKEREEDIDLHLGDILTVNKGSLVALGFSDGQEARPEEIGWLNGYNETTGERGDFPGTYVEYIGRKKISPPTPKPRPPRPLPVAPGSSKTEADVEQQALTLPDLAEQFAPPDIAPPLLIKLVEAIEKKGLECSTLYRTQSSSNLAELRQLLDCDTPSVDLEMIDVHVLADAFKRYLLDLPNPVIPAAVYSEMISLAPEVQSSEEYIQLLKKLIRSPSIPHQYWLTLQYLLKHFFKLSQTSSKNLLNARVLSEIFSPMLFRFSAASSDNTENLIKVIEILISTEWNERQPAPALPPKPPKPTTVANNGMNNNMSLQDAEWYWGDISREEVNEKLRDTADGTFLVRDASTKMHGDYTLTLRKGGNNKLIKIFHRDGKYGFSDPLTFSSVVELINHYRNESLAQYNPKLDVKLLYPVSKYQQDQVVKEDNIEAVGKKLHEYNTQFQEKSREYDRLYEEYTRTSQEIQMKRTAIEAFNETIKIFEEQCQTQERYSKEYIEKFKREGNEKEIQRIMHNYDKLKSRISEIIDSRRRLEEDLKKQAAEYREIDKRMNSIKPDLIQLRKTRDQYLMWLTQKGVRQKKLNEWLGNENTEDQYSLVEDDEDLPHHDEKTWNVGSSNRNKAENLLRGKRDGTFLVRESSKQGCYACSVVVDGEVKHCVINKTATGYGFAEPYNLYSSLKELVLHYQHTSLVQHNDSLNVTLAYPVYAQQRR
# Sequence (P42336 whole entry): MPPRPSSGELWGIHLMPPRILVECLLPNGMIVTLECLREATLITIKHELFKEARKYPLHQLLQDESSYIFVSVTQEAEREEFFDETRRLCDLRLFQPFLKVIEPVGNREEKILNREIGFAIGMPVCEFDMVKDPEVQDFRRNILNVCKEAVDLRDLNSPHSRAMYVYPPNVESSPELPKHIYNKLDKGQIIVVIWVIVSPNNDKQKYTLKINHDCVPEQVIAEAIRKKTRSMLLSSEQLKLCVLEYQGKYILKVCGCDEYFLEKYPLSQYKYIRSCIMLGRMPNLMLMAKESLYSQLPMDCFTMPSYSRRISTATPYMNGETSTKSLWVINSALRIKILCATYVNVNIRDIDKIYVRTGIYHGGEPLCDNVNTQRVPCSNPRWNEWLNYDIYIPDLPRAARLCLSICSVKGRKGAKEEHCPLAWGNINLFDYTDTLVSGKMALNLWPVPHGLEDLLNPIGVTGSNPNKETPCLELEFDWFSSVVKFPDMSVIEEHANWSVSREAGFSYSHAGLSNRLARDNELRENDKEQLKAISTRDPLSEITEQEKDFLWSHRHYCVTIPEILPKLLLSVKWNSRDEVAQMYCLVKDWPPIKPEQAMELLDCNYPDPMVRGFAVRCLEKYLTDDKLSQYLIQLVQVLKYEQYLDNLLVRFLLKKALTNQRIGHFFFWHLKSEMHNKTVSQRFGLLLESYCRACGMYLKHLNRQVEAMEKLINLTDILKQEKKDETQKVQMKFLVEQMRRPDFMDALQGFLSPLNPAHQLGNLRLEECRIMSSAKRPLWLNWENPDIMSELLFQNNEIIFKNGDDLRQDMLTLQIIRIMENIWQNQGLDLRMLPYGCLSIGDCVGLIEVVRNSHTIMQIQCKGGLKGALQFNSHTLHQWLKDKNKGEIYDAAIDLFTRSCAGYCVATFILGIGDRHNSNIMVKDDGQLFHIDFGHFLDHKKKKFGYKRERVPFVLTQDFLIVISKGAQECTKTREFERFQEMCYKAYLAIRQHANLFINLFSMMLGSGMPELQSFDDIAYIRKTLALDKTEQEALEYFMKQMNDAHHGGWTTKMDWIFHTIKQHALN
# Protocol Description: Inhibition of PI3Kalpha-induced PIP-2 phosphorylation (filter-binding assay, 33P-ATP)
# Particulars: PI3 Kinase alpha (p85alpha/His-p110alpha), 1 μM ATP; read-out: IC50 PI3Kα
Recorded Metric: IC50 (nM)
Provide only the numeric value, understood in nM.

[[record]]
mol = "CCc1ncnc(-c2ccnc(C)c2)c1C#Cc1cnc(C)c(NS(=O)(=O)c2cc(Cl)ccc2OC)c1"
unit_annotation = "nM"
measured_value = 0.65

[[record]]
mol = "Cc1cc(C)cc(-c2ncnc(C)c2C#Cc2cnc(C)c(NS(C)(=O)=O)c2)c1"
unit_annotation = "nM"
measured_value = 3

[[record]]
mol = "CCc1ccccc1S(=O)(=O)Nc1cc(C#Cc2c(CC)ncnc2-c2ccnc(C)c2)cnc1C"
unit_annotation = "nM"
measured_value = 9

[[record]]
mol = "CCc1ncnc(-c2ccc(C)nc2)c1C#Cc1cnc(C)c(NS(C)(=O)=O)c1"
unit_annotation = "nM"
measured_value = 1


INPUT: Give PI3Kalpha (Homo sapiens) IC50 for CCc1ncnc(-c2ccc(C(=O)N3CCN(C)CC3)c(F)c2)c1C#Cc1cnc(C)c(NS(=O)(=O)c2ccc(F)cc2F)c1
OUTPUT: 0.5

INPUT: Next: CCOc1ccc(-c2ncnc(CC)c2C#Cc2cnc(C)c(NS(C)(=O)=O)c2)cc1OCC
OUTPUT: 0.58

INPUT: Next: CCc1nc(N)nc(-c2ccc(C(=O)N3CCN(C)CC3)c(F)c2)c1C#Cc1cnc(C)c(NS(=O)(=O)c2ccc(F)cc2F)c1
OUTPUT: 0.28

###

# Tested on: H460 cells
# Protocol Description: alamarBlue H460 cell assay (antiproliferative/cytotoxicity)
# Assay type: cell-based
# Particulars: NCI-H460; H460 human lung carcinoma cells
Attribute: log10(EC50)
Could you please treat all values as log10 of EC50 in nM?

INPUT: Give H460 cells log10(EC50) for CCc1ncnc(-c2ccc(C)nc2)c1C#Cc1cnc(C)c(NS(C)(=O)=O)c1 [Example 3]
OUTPUT: 2.57

###

# System: PI3Kalpha (Homo sapiens)
# Construct: His (N); made in house; host or cells: SF9 insect cells (baculovirus co-infection)
# Protocol Description: Inhibition of PI3Kalpha-induced PIP-2 phosphorylation (filter-binding assay, 33P-ATP)
# Assay type: biochemical
# Particulars: PI3 Kinase alpha (p85alpha/His-p110alpha), 1 μM ATP; read-out: IC50 PI3Kα
Attribute: pIC50
Value format note: pIC50 is -log10 of concentration (mol/L); just state the number.

Sample records with pIC50:
[[record]]
mol = "CCc1ncnc(-c2cc(C)nc(C)c2)c1C#Cc1cnc(C)c(NS(C)(=O)=O)c1"
system = "PI3Kalpha (Homo sapiens)"
measured_value = 9.00

[[record]]
mol = "CCc1ncnc(-c2ccccc2)c1C#Cc1cnc(C)c(NS(C)(=O)=O)c1"
system = "PI3Kalpha (Homo sapiens)"
measured_value = 8.52

[[record]]
mol = "CCc1ncnc(-c2ccnc(C)c2)c1C#Cc1cnc(C)c(NS(=O)(=O)c2cc(C)ccc2OC)c1"
system = "PI3Kalpha (Homo sapiens)"
measured_value = 9.00


Please find the next molecule below.
INPUT: Fill blank: measured pIC50 of the molecule CCc1ncnc(-c2c(C)cccc2C)c1C#Cc1cnc(C)c(NS(C)(=O)=O)c1 is ____.
OUTPUT: 6.42

###

# Tested on: MB453 cells
# Protocol Description: alamarBlue MB453 cell assay (antiproliferative/cytotoxicity)
# Format: cell-based
# Particulars: Homo sapiens; MDA MB 453 breast cancer cell line
# From the text: The H460, MB453, U87, MCF7 and BT474 alamarBlue cell assays provide EC50 values indicative of the antiproliferative or cytotoxic effects of the compounds to respectively the H460 (human non small cell line cancer), MB-453 (breast cancer cell line), U87 (glioblastoma cell line), MCF7 (breast cancer cell line) and BT474 (breast cancer cell line). […] 3. […] Measure fluorescence by exciting at 530-560 nm and measuring emission at 590 nm 5. […]
Attribute: pEC50
Value format note: pEC50 is -log10 of concentration (mol/L); just state the number.

Sample records with pEC50:
[[record]]
mol = "CCc1ccc(S(=O)(=O)Nc2cc(C#Cc3c(CC)ncnc3-c3ccnc(C)c3)cnc2C)cc1"
system = "MB453 cells"
recorded_metric = "pEC50"
measured_value = 6.13

[[record]]
mol = "CCc1ncnc(-c2ccnc(C)c2)c1C#Cc1cnc(C)c(NS(=O)(=O)c2cc(C)ccc2OC)c1"
system = "MB453 cells"
recorded_metric = "pEC50"
measured_value = 6.84

[[record]]
mol = "Cc1ccc(-c2ncnc(C)c2C#Cc2cnc(C)c(NS(C)(=O)=O)c2)cn1"
system = "MB453 cells"
recorded_metric = "pEC50"
measured_value = 6.39

[[record]]
mol = "CCc1nc(N)nc(-c2cccc(C#N)c2)c1C#Cc1cnc(C)c(NS(=O)(=O)c2ccc(F)cc2F)c1"
system = "MB453 cells"
recorded_metric = "pEC50"
measured_value = 6.76

[[record]]
mol = "CCc1ncnc(-c2cccc(C#N)c2)c1C#Cc1cnc(C)c(NS(C)(=O)=O)c1"
system = "MB453 cells"
recorded_metric = "pEC50"
measured_value = 6.50

[[record]]
mol = "CCc1ncnc(-c2ccnc(C)c2)c1C#Cc1cnc(C)c(NS(=O)(=O)c2ccc(CNC(C)=O)cc2)c1"
system = "MB453 cells"
recorded_metric = "pEC50"
measured_value = 6.29

[[record]]
mol = "CCc1ncnc(-c2ccnc(C)c2)c1C#Cc1cnc(C)c(NS(=O)(=O)c2ccccc2C)c1"
system = "MB453 cells"
recorded_metric = "pEC50"
measured_value = 6.28


INPUT: Fill blank: measured pEC50 of the compound Cc1ncc(C#Cc2c(C)ncnc2-c2ccc(C(=O)N3CCN(C)CC3)c(F)c2)cc1NS(C)(=O)=O is ____.
OUTPUT: 6.16

###

# System: BT474 cells
# Protocol Description: alamarBlue BT474 cell assay (antiproliferative/cytotoxicity)
# Format: cell-based
# Particulars: BT-474 human breast cancer cell line, 5-6 days incubation
Attribute: pEC50
Value format note: pEC50 is -log10 of concentration (mol/L); just state the number.

[[record]]
mol = "CCc1ncnc(-c2ccccc2)c1C#Cc1cnc(C)c(NS(C)(=O)=O)c1"
recorded_metric = "pEC50"
measured_value = 6.28


Please find the next molecule below.
INPUT: Fill blank: measured pEC50 of the molecule CCc1ncnc(-c2ccnc(C)c2)c1C#Cc1cnc(C)c(NS(=O)(=O)c2ccc(OC)cc2OC)c1 is ____.
OUTPUT: 6.65

###

# System: PI3Kalpha (Homo sapiens)
# Construct: His (N)
# Protocol Description: Inhibition of PI3Kalpha-induced PIP-2 phosphorylation (filter-binding assay, 33P-ATP)
# Particulars: PI3 Kinase alpha (p85alpha/His-p110alpha), 1 μM ATP; read-out: IC50 PI3Kα
Recorded Metric: pIC50
Value format note: pIC50 is -log10 of concentration (mol/L); just state the number.

INPUT: Fill blank: measured pIC50 of the compound Cc1ncc(C#Cc2c(C)ncnc2-c2ccccc2)cc1NS(C)(=O)=O [Example 42] is ____.
OUTPUT: 8.40

INPUT: Next: CNC(=O)c1ccc(-c2nc(N)nc(C)c2C#Cc2cnc(Cl)c(NS(C)(=O)=O)c2)cc1Cl [Example 26]
OUTPUT: 9.08

INPUT: Next: CCc1ncnc(-c2ccc(CNC(=O)OC(C)(C)C)nc2)c1C#Cc1cnc(C)c(NS(=O)(=O)c2ccccc2C(F)(F)F)c1 [Example 49]
OUTPUT: 8.70

INPUT: Next: CCc1nc(N)nc(-c2ccccc2)c1C#Cc1cnc(C)c(NS(C)(=O)=O)c1 [Example 17]
OUTPUT: 8.70

INPUT: Next: CCc1ncnc(-c2ccc(OC)c(OC)c2OC)c1C#Cc1cnc(C)c(NS(C)(=O)=O)c1 [Example 80]
OUTPUT: 7.37

INPUT: Next: CCc1ncnc(-c2ccnc(C)c2)c1C#Cc1cnc(C)c(NS(=O)(=O)c2ccc(OC)cc2OC)c1 [Example 98]
OUTPUT: 8.70

INPUT: Next: CCc1ncnc(-c2ccnc(C)c2)c1C#Cc1cnc(C)c(NS(=O)(=O)c2ccccc2)c1 [Example 83]
OUTPUT: 9.19

INPUT: Next: CCS(=O)(=O)Nc1cc(C#Cc2c(C)nc(N)nc2-c2ccnc(C)c2)cnc1C [Example 20]
OUTPUT: 7.85
